target-of-assay: Solute carrier family 12 member 5 (Rattus norvegicus)
Sequence (Q63633 whole entry): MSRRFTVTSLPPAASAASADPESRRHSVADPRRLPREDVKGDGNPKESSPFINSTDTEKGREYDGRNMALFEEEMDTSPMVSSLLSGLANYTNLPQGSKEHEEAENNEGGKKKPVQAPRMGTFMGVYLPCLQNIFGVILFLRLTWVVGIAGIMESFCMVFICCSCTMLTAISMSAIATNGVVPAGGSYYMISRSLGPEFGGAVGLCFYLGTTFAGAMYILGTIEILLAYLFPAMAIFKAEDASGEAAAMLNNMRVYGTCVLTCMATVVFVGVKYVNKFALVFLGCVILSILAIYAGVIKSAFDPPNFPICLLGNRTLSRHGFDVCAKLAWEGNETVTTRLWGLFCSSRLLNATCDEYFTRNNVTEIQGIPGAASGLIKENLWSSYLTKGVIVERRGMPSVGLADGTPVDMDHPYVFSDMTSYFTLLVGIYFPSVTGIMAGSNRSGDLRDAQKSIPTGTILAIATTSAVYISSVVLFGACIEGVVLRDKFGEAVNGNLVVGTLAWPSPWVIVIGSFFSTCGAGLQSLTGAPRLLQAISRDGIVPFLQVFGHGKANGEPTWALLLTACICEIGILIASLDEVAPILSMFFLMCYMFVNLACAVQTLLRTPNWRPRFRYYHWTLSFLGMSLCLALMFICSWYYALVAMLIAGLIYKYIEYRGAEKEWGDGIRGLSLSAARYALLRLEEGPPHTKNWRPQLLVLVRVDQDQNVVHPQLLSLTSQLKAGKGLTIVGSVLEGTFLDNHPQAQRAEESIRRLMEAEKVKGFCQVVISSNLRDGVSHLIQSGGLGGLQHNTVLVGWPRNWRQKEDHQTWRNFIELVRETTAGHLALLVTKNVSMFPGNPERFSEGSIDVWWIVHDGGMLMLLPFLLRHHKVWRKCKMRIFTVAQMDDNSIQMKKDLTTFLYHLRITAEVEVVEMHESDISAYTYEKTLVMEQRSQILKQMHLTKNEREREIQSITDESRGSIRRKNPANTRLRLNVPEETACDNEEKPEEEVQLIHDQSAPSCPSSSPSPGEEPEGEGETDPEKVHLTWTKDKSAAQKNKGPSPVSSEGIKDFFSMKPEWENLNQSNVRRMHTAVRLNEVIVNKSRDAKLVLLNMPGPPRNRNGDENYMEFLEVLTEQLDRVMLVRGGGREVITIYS
protocol: Inhibition of rat KCC2 expressed in human Sk-Hep cells assessed as […] off Rb+ flux by atomic absorption spectroscopic analysis
pIC50 for assorted molecules
Bear in mind: pIC50 is minus log10 of a mol/L concentration; give just that figure.

INSERT INTO results (molecule, observed_measurement) VALUES
  ('CC(=O)N1c2ccccc2CC1(Cc1ccccc1)C(=O)OCc1ccccc1 (racemic)', 6.70),
  ('O=C(c1cc2cc(Br)ccc2oc1=O)N1CCN(Cc2ccccc2)CC1', 6.22),
  ('CC(=O)N1CCC[C@@]1(Cc1ccccc1)C(=O)OCc1ccccc1', 6.52),
  ('CC(=O)N1CCCC1(Cc1ccccc1)c1nc(-c2ccccc2)co1 (racemic)', 4.90),
  ('CC(=O)N1CCC[C@]1(Cc1ccccc1)C(=O)OCc1ccccc1', 4.30),
  ('CC(=O)N1CCCC1(Cc1ccccc1)C(=O)OCc1ccccc1 (racemic)', 6.10);

Please fill in: pIC50 reported for `O=C(c1cc2ccccc2oc1=O)N1CCN(Cc2ccccc2)CC1` = 5.40

The reported value for O=C1CCCC2CCC(Cc3ccccc3)(C(=O)OCc3ccccc3)N12 (racemic) in terms of pIC50 is 6.00

Reported pIC50 of CC(=O)N1CCCC1(COCc1ccccc1)Cc1ccccc1 (racemic) : 4.70

Origin of values: ChEMBL document CHEMBL2029202
